experiment: Single-dose intravenous pharmacokinetics in cynomolgus monkeys; format: in vivo; settings: male; cynomolgus monkey, M, n=3, 50 mg/kg single IV; plasma LC/MS/MS, non-compartmental; mean (SD); read-out: Cl_obs (converted)
Metric: clearance

>>> test_result("CC(=O)N[C@H]1CSSC[C@@H](C(N)=O)NC(=O)[C@H](CC(=O)O)NC(=O)[C@@H]2CCCN2C(=O)CNC(=O)[C@H](CCCCN)NC(=O)[C@H](CC(=O)O)NC(=O)CNC(=O)[C@H](CCCNC(=N)N)NC1=O")
"2.97 mL/min/kg"

###

Assay: Single-dose intravenous pharmacokinetics in cynomolgus monkeys
Format: in vivo
Details: male; cynomolgus monkey, M, n=3, 5 mg/kg single IV; plasma LC/MS/MS, non-compartmental; mean (SD)
Protocol: The in vivo pharmacokinetic profile of CEND-1 after a single dose was evaluated in four non-GLP animal studies including Sprague-Dawley rats, Beagle dogs, cynomolgus monkeys and BALB/c mice following the intravenous injection of CEND-1 at various doses (1, 5 and 50 mg/kg for rats, dogs and monkeys; 1.5, 4.5 and 13.5 mg/kg for mice) (Table 1). […] Plasma CEND-1 was quantified by validated liquid chromatography coupled with a tandem mass spectrometry (LC/MS/MS) assay. […]
Metric: AUC(0-inf)

>>> test_result("CC(=O)N[C@H]1CSSC[C@@H](C(N)=O)NC(=O)[C@H](CC(=O)O)NC(=O)[C@@H]2CCCN2C(=O)CNC(=O)[C@H](CCCCN)NC(=O)[C@H](CC(=O)O)NC(=O)CNC(=O)[C@H](CCCNC(=N)N)NC1=O")
"28200 ng·h/mL"

###

assay: Clinical pharmacokinetics in patients with metastatic pancreatic ductal adenocarcinoma; type: in vivo, human; conditions: human, plasma, iv, 3.2 mg/kg, pancreatic cancer patients, 3.2 mg/kg IV, plasma; Cycle 1 Day 1 with nab-paclitaxel+gemcitabine; mean, N=9; read-out: Vz
Metric: Vd (L/kg)

>>> test_result("CC(=O)N[C@H]1CSSC[C@@H](C(N)=O)NC(=O)[C@H](CC(=O)O)NC(=O)[C@@H]2CCCN2C(=O)CNC(=O)[C@H](CCCCN)NC(=O)[C@H](CC(=O)O)NC(=O)CNC(=O)[C@H](CCCNC(=N)N)NC1=O")
0.263

###

assay: Single-dose intravenous pharmacokinetics in cynomolgus monkeys; format: in vivo; conditions: male; cynomolgus monkey, M, n=3, 5 mg/kg single IV; plasma LC/MS/MS, non-compartmental; mean (SD); read-out: Cl_obs (converted)
Metric: clearance (mL/min/kg)

>>> test_result("CC(=O)N[C@H]1CSSC[C@@H](C(N)=O)NC(=O)[C@H](CC(=O)O)NC(=O)[C@@H]2CCCN2C(=O)CNC(=O)[C@H](CCCCN)NC(=O)[C@H](CC(=O)O)NC(=O)CNC(=O)[C@H](CCCNC(=N)N)NC1=O [CEND-1]")
2.98

###

assay: Single-dose intravenous pharmacokinetics in dogs; format: in vivo, dog; settings: male; Beagle dog, M, n=5, 75 mg/kg single IV; plasma LC/MS/MS, non-compartmental; mean (SD); read-out: t1/2 (converted)
Metric: half-life (min)

>>> test_result("CC(=O)N[C@H]1CSSC[C@@H](C(N)=O)NC(=O)[C@H](CC(=O)O)NC(=O)[C@@H]2CCCN2C(=O)CNC(=O)[C@H](CCCCN)NC(=O)[C@H](CC(=O)O)NC(=O)CNC(=O)[C@H](CCCNC(=N)N)NC1=O")
36.9
